Molecular target: Orexin receptor type 2 (Homo sapiens, UniProt O43614)
Sequence (O43614 whole entry): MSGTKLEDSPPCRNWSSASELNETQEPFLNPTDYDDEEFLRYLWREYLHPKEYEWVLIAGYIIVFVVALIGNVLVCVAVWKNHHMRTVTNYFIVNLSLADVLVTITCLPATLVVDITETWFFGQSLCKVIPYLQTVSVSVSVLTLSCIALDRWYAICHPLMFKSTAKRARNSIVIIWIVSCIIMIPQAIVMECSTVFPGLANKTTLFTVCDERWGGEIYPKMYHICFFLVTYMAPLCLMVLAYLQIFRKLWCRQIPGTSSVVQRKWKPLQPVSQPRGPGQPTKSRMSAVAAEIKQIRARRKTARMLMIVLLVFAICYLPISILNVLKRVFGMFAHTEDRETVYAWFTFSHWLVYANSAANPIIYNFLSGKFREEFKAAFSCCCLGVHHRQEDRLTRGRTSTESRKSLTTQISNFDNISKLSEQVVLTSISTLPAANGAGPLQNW
Experimental Endpoint: log10 of Ki (log10 of the value in nM)
Answers are given as log10 of Ki in nM.

Answered cases to consult:
Structure Smiles String: COc1ccc(N2C(=O)N(Cc3c(F)cc(F)cc3F)c3ncccc3S2(=O)=O)nc1OC
Obs Value: 0.20
//
Structure Smiles String: COc1ccc(N2C(=O)N(Cc3ccccc3)c3ccccc3S2(=O)=O)cc1OC
Obs Value: 1.90
//
Structure Smiles String: COc1cc(F)c(CN2C(=O)N(c3cc(OC)nc(OC)c3)S(=O)(=O)c3ccccc32)c(F)c1
Obs Value: -0.60

Consider the additional compound presented here.
Case COc1cc(F)c(CN2C(=O)N(c3ccc(OC)c(OC)n3)S(=O)(=O)c3ccccc32)c(F)c1 , Orexin receptor type 2 (Homo sapiens, UniProt O43614), log10 of Ki recorded as -0.70

Entry source: ChEMBL document CHEMBL3739366
